Tested on: Staphylococcus aureus
testMethodNotes: In vivo antimicrobial activity against Staphylococcus aureus UAMS-1 infected in Caenorhabditis elegans AU37 nematodes assessed as viability of nematodes incubated for 5 days by susceptibility test
Type: functional
runParameters: UAMS-1, 120 h, time 5 day
Entries and their MIC values follow.

{"querySmiles": "CCCCCCCCCC(=O)N[C@@H](Cc1c[nH]c2ccccc12)C(=O)N[C@H](CC(N)=O)C(=O)N[C@@H](CC(=O)O)C(=O)N[C@@H]1C(=O)NCC(=O)N[C@@H](CCCN)C(=O)N[C@@H](CC(=O)O)C(=O)N[C@H](C)C(=O)N[C@@H](CC(=O)O)C(=O)NCC(=O)N[C@H](CO)C(=O)N[C@@H]([C@H](C)CC(=O)O)C(=O)N[C@@H](CC(=O)c2ccccc2N)C(=O)O[C@@H]1C", "MIC": "4 µg/mL"}
{"querySmiles": "O=C(O)c1ccc(-n2cc(CNc3cc(C(F)(F)F)cc(C(F)(F)F)c3)c(-c3ccc(F)cc3)n2)cc1", "MIC": "1 µg/mL"}
{"querySmiles": "O=C(O)c1ccc(-n2cc(CNc3cc(Cl)cc(C(F)(F)F)c3)c(-c3ccc(F)c(F)c3)n2)cc1", "MIC": "1 µg/mL"}
{"querySmiles": "O=C(O)c1ccc(-n2cc(CNc3cc(Br)cc(C(F)(F)F)c3)c(-c3cccc(F)c3)n2)cc1", "MIC": "1 µg/mL"}
{"querySmiles": "O=C(O)c1ccc(-n2cc(CNc3cc(Br)cc(C(F)(F)F)c3)c(-c3ccc(F)c(F)c3)n2)cc1", "MIC": "1 µg/mL"}
{"querySmiles": "O=C(O)c1ccc(-n2cc(CNc3ccc(Cl)c(Cl)c3)c(-c3ccc(F)cc3)n2)cc1", "MIC": "1 µg/mL"}
